Measured growth, listed per entry.
tested on: UO-31 renal; assay: NCI-60 one-dose screen, 48 h (100 = growth as untreated, 0 = no growth, -100 = all killed); details: 10 µM unless noted
This is part of a sample that, as a whole, favours compounds with a hit. Of some 83,000 tested, about 20% had one in any assay.
readout.name: growth (%)

> print(dat)
                           smiles.structure  readout.name  numeric.readout
1  COc1cc(Nc2ncc3c(n2)-c2ccc(Cl)cc2C(c2c(F)cccc2OC)=NC3)ccc1C(=O)O        growth             51.7
2  C=CC(=O)Nc1cc2c(Nc3ccc(F)c(Cl)c3)ncnc2cc1C#CC(C)(C)N1CCN(C)CC1        growth            -99.8
3  Cc1cc(Nc2cc(N3CCN(C)CC3)nc(/C=C/c3ccccc3)n2)n[nH]1        growth            -53.8
4  CCN1CCN(Cc2ccc(-c3cc4c(N[C@H](C)c5ccccc5)ncnc4[nH]3)cc2)CC1        growth             13.5

---

Tested on: SF-268 CNS
Test: NCI-60 one-dose screen, 48 h (100 = growth as untreated, 0 = no growth, -100 = all killed)
Details: 10 µM unless noted
Experimental: Cells are grown in 96 well plates and exposed to the test compound for 48 hours. Compounds are tested at a single concentration, which is 10^-5 M for most compounds. The reported endpoint is percent growth (GI% or GIPRCNT), where numbers from 0 - 100% represent growth inhibition, and numbers from -100% - 0 represent cell death. For example, a value of 40 represents 60% growth inhibition. A value of 0 means no net growth occurred over the course of the experiment. […]
Compounds without any hit were thinned out: in the full panel of roughly 83,000, 20% have a hit.
Please respond with 1 when measured growth is strictly beneath 60%, and with -1 in all other cases.

> print(dat)
                                    compound  answer.label
 1  CCCCCCCC(=O)SCC/C=C/[C@@H]1CC(=O)NCc2cc(ccn2)C2=N[C@@](C)(CS2)C(=O)N[C@@H](C(C)C)C(=O)O1             1
 2  O=C1/C(=C\c2cccc(OCCCCCOc3ccc(Cl)cc3)c2)N=C2SCCCN12            -1
 3    O=C(Cn1cncn1)Nc1ccc(-c2nc3ccccc3s2)cc1            -1
 4            N#Cc1ccc(-n2nnc3ccccc32)cc1C#N            -1
 5       COc1ccc2c(c1)cn1c3ccc(O)cc3nc(N)c21             1
 6  CCNCCNc1cc(-c2ccc(Cl)c(Cl)c2)c(C#N)c2nc3ccccc3n12             1
 7  CNC(=O)c1cc(Oc2cccc3nc(Nc4ccc(Cl)c(F)c4)ccc23)ccn1             1
 8  COC(=O)C1=C(C(=O)OC)C23C=C(C)C1C2=C(C)C1(CC1)[C@@](C)(O)C3=O (some centres undefined)             1
 9  NC(=O)Nc1cc(-c2cccc(F)c2)sc1C(=O)N[C@H]1CCCNC1             1
10  O=C1CC(c2cccc(F)c2)c2c(n[nH]c2-c2ccc(Cl)cc2)N1 (centres undefined)            -1
11  CCCCCCC1(/C=N/NC(N)=O)NC(=O)NC1=O (centres undefined)            -1
12  C#Cc1cccc(Nc2ncnc3cc(OC)c(OCCCCCCC(=O)NO)cc23)c1             1
13  CNC(=O)c1ccc(Nc2ncc(C(F)(F)F)c(NCc3nccnc3N(C)S(C)(=O)=O)n2)cc1             1
14  Cn1cc(-c2[nH]c3cc(NC(=O)[C@H](N)C4CCCCC4)cc4c3c2C=NNC4=O)cn1             1
